Experiment: in vitro
Settings: rat, gh3-tre-luc cells, AC50 (uM) modified / 1000, Tox21_110001=Tox21_111098; viability, 1 nM T3 present, 24 h
quantity kind: CC50 at 24 h

Data request: Looking for the measured CC50 at 24 h of Oc1c(Br)cc(Br)cc1Br [2,4,6-Tribromophenol] , can you help?
Data returned: > 50 µM

====

Test system: GH3-TRE-Luc cell line
Settings: read-out: AC50 (uM) modified / 1000; Tox21_110001=Tox21_302947; viability, 1 nM T3 present, 24 h
quantity kind: CC50 (µM)
Note: unit µM is implicit; provide only the numeric part.

Data request: Looking for the measured CC50 of O=[N+]([O-])c1cc(N(CCO)CCO)ccc1NCCO [HC Blue 2] , can you help?
Data returned: 91.6

====

Assay: in vitro
Conditions: rat, gh3-tre-luc cells, AC50 (uM) modified / 1000
Where a name gives a salt, the structure may show the parent alone.
CC50 at 24 h for assorted compounds

Below: 3 compounds and their reported CC50 at 24 h.
>  <compound>
CN[C@H]1CC[C@@H](c2ccc(Cl)c(Cl)c2)c2ccccc21 [Sertraline hydrochloride]

>  <quantity kind>
CC50 at 24 h

>  <result>
7.85 µM

$$$$
>  <compound>
CCCCC1CCCCC(=O)O1 (centres unmarked)

>  <quantity kind>
CC50 at 24 h

>  <result>
> 90 µM

$$$$
>  <compound>
CCOC(=O)C1=NN(c2ccccc2)C(=O)C1

>  <quantity kind>
CC50 at 24 h

>  <result>
> 90 µM

$$$$

Data request: Looking for the measured CC50 at 24 h of CC(=O)Nc1ncc([N+](=O)[O-])s1 [Nithiamide] , can you help?
Data returned: > 50 µM

Data request: Looking for the measured CC50 at 24 h of O=C(OCCCCCOC(=O)c1ccccc1)c1ccccc1 [Pentane-1,5-diyl dibenzoate] , can you help?
Data returned: > 90 µM

Data request: Looking for the measured CC50 at 24 h of O=C(Nc1ccc2[nH]ccc2c1)c1cc2cc(F)ccc2n1Cc1cccc(F)c1 , can you help?
Data returned: 14.6 µM

Data request: Looking for the measured CC50 at 24 h of O=C(O)CC(Cl)C(=O)O (centres unmarked) , can you help?
Data returned: > 90 µM

Data request: Looking for the measured CC50 at 24 h of CCCCCN(CCCCC)C(=O)C(CCC(=O)O)NC(=O)c1ccc(Cl)c(Cl)c1 (centres unmarked) [Lorglumide sodium] , can you help?
Data returned: > 50 µM

Data request: Looking for the measured CC50 at 24 h of CC(CO)CO , can you help?
Data returned: > 100 µM

Data request: Looking for the measured CC50 at 24 h of C=Cc1ccccc1 , can you help?
Data returned: > 90 µM

Data request: Looking for the measured CC50 at 24 h of NCCN1CCOCC1 , can you help?
Data returned: > 90 µM

====

System: GH3-TRE-Luc cell line
Details: read-out: AC50 (uM) modified / 1000; Tox21_110001=Tox21_303176; viability, 1 nM T3 present, 24 h
quantity kind: CC50

Data request: Looking for the measured CC50 of BrC1CCC(Br)C(Br)CCC(Br)C(Br)CCC1Br (stereo not shown) , can you help?
Data returned: 38.8 µM

====

Test system: GH3-TRE-Luc cell line
Conditions: read-out: AC50 (uM) modified / 1000; Tox21_110001=Tox21_301417; viability, 1 nM T3 present, 24 h
quantity kind: CC50 (µM)
Note: unit µM is implicit; provide only the numeric part.

Data request: Looking for the measured CC50 of CN(C)CCCN1c2ccccc2CCc2ccccc21 , can you help?
Data returned: 19.5

====

Test system: GH3-TRE-Luc cell line
Conditions: read-out: AC50 (uM) modified / 1000; Tox21_110001=Tox21_202628; viability, 1 nM T3 present, 24 h
quantity kind: CC50
Give the figure together with its unit, number first.

Data request: Looking for the measured CC50 of CCCCCCCCCCCCn1cc[n+](C)c1 [1-Dodecyl-3-methylimidazolium bromide] , can you help?
Data returned: 80.1 µM

====

Test: in vitro
Settings: rat, gh3-tre-luc cells, AC50 (uM) modified / 1000
CC50 at 24 h for assorted compounds

Below: 3 compounds and their reported CC50 at 24 h.
>  <compound>
CC[C@@]1([C@@H]2O[C@@H]([C@H]3O[C@@](O)(CO)[C@H](C)C[C@@H]3C)C[C@@H]2C)CC[C@H]([C@]2(C)CC[C@]3(C[C@H](O)[C@@H](C)[C@@H]([C@@H](C)[C@@H](OC)[C@H](C)C(=O)O)O3)O2)O1 [Monensin sodium]

>  <CC50 at 24 h>
0.446 µM

$$$$
>  <compound>
Cc1c(C)c([N+](=O)[O-])c(C(C)(C)C)c([N+](=O)[O-])c1C

>  <CC50 at 24 h>
73.9 µM

$$$$
>  <compound>
CC1=NN(c2ccccc2)C(=O)C1

>  <CC50 at 24 h>
> 90 µM

$$$$

Data request: Looking for the measured CC50 at 24 h of O=c1[nH]c(=O)[nH]c(=O)[nH]1 , can you help?
Data returned: > 90 µM

Data request: Looking for the measured CC50 at 24 h of CN(C)C(=O)Nc1ccc(Cl)c(Cl)c1 , can you help?
Data returned: > 90 µM

====

Experiment: in vitro
Conditions: rat, gh3-tre-luc cells, AC50 (uM) modified / 1000
CC50 at 24 h for assorted compounds

>  <compound>
CC(C)NC(=O)NC(C)C

>  <CC50 at 24 h>
> 90 µM

$$$$
>  <compound>
CC(CCl)OP(=O)(OC(C)CCl)OC(C)CCl (stereo not shown) [Tris(2-chloroisopropyl)phosphate]

>  <CC50 at 24 h>
> 90 µM

$$$$
>  <compound>
COc1ccc(NC(=O)CC(C)=O)cc1 [N-(4-Methoxyphenyl)-3-oxobutanamide]

>  <CC50 at 24 h>
> 90 µM

$$$$

Here's the next entry for you.
Data request: Looking for the measured CC50 at 24 h of O=C(Nc1ccccc1SSc1ccccc1NC(=O)c1ccccc1)c1ccccc1 [2,2'-Dibenzoylaminodiphenyl disulfide] , can you help?
Data returned: 89.8 µM

====

System: GH3-TRE-Luc cell line
Details: read-out: AC50 (uM) modified / 1000; Tox21_110001=Tox21_202144; viability, 1 nM T3 present, 24 h
quantity kind: CC50 (µM)
Note: unit µM is implicit; provide only the numeric part.

Data request: Looking for the measured CC50 of Nc1ccc(Nc2ccccc2)cc1 , can you help?
Data returned: 42.9

====

Assay: in vitro
Conditions: rat, gh3-tre-luc cells, AC50 (uM) modified / 1000
Counter-ions that a name gives are not always drawn.
quantity kind: CC50 at 24 h

Below: 2 compounds and their reported CC50 at 24 h.
>  <compound>
COC(=O)C1=C(C)NC(C)=C(C(=O)OCCCN2CCC(c3ccccc3)(c3ccccc3)CC2)C1c1cccc([N+](=O)[O-])c1 (racemic) [(+/-) -Niguldipine hydrochloride (1:x)]

>  <result>
12.3 µM

$$$$
>  <compound>
O=C(c1ccc(F)cc1)C1CCN(CCn2c(=O)[nH]c3ccccc3c2=O)CC1

>  <result>
> 50 µM

$$$$

Data request: Looking for the measured CC50 at 24 h of NCC(O)CC(=O)O (centres unmarked) [4-Amino-3-hydroxybutyric acid] , can you help?
Data returned: > 50 µM

Data request: Looking for the measured CC50 at 24 h of CCCCC(CC)COC(=O)/C=C/c1ccc(OC)cc1 (stereo not drawn) [2-Ethylhexyl trans-4-methoxycinnamate] , can you help?
Data returned: > 90 µM

Data request: Looking for the measured CC50 at 24 h of CN1C(CCl)Nc2cc(Cl)c(S(N)(=O)=O)cc2S1(=O)=O (centres unmarked) [Methyclothiazide] , can you help?
Data returned: > 50 µM

Data request: Looking for the measured CC50 at 24 h of CC(O)CO (centres unmarked) , can you help?
Data returned: > 90 µM

Data request: Looking for the measured CC50 at 24 h of CC(C)(C)C(=O)OCC(=O)[C@H]1CC[C@H]2[C@@H]3CCC4=CC(=O)CC[C@]4(C)[C@H]3CC[C@]12C [Desoxycorticosterone pivalate] , can you help?
Data returned: > 50 µM

Data request: Looking for the measured CC50 at 24 h of Cc1cc(CC(C)CC(C)(C)C)n(O)c(=O)c1 (centres unmarked) , can you help?
Data returned: 33 µM

====

Test: in vitro
Conditions: rat, gh3-tre-luc cells, AC50 (uM) modified / 1000, Tox21_110001=Tox21_111859; viability, 1 nM T3 present, 24 h
quantity kind: CC50 at 24 h

Data request: Looking for the measured CC50 at 24 h of O=C1CCCCC1CN1CCCCC1 (stereo not shown) [Pimeclone] , can you help?
Data returned: > 50 µM
